Tested on: MCF7R
EXPERIMENTAL PROTOCOL: In vitro cytotoxic activity against growth of MDR phenotype human breast carcinoma cell line (MCF-7-R) after 72 hr
Assay type: functional, cell-based
STATED CONDITIONS: mcf7r
TEST READOUT: IC50 (µM)
Answer in µM, number only, no unit symbol.

Entry under review: `CISPLATIN` . Reported IC50?
3.53
